experimental target: UniProt P11229
Sequence (P11229 whole entry): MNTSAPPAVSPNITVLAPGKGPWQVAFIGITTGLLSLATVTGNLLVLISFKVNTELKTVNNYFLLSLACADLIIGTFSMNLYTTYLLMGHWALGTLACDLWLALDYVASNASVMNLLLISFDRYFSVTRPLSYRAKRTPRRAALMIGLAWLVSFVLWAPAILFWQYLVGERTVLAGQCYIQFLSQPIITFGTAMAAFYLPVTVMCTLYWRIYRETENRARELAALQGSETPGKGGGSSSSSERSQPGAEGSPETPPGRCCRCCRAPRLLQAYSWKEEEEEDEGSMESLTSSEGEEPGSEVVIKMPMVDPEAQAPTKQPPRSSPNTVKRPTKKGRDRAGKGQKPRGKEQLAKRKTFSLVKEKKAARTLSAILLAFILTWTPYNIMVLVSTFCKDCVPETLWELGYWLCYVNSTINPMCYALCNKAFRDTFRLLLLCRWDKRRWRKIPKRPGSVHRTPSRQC
assay text: Binding affinity at the unliganded human muscarinic acetylcholine receptor M1 was estimated as log affinity (log1/M)
Assign class by Affinity: not lower than 4 means rule met; lower than 4 means rule not met.

Determine whether measured Affinity meets or exceeds 4 for C=CC[N+]12CC[C@@]34c5ccccc5N5/C=C6/[C@H]7C[C@H]8[C@@]9(CC[N@@+]8(CC=C)C/C7=C/CO)c7ccccc7N(/C=C(/[C@@H](C[C@@H]31)/C(=C\CO)C2)[C@H]54)[C@@H]69 (some centres undefined)
rule met

Quick check, Affinity >= 4? N[N+]12CC[C@@]34c5ccccc5N5C(=O)C[C@@H]6OCC=C(C1)[C@H](C[C@@H]32)[C@@H]6[C@H]54 (some centres undefined)
rule met

Check the entry C=CC[N+]12CC[C@@]34c5cc(OC)c(OC)cc5N5C(=O)C[C@@H]6OCC=C(C1)[C@H](C[C@@H]32)[C@@H]6[C@H]54 (some centres undefined) : does Affinity equal or exceed 4?
rule met

Answer whether Affinity of N#CC[N+]12CC[C@@]34c5ccccc5N5C(=O)C[C@@H]6OCC=C(C1)[C@H](C[C@@H]32)[C@@H]6[C@H]54 (some centres undefined) is greater than or equal to 4.
rule not met

hey, is Affinity for this one >= 4? CCC[N+]12CC[C@@]34c5ccccc5N5C(=O)C[C@@H]6OCC=C(C1)[C@H](C[C@@H]32)[C@@H]6[C@H]54 (some centres undefined)
rule met

Please indicate if the recorded Affinity for O=C1C[C@@H]2OCC=C3C[N+]4([O-])CC[C@]56c7ccccc7N1[C@H]5[C@H]2[C@H]3C[C@@H]64 (some centres undefined) meets or exceeds 4.
rule not met
